- Tested on: STAT1/3 through TYK2/JAK1
- ASSAY: IFNa induced STAT phosphorylation in HEK293 cells (SIE-bla reporter gene)
- Assay type: cell-based
- TEST_SETTINGS: Homo sapiens, HEK293; HEK293T-sie-bla cells, IFNa at EC80, 4 hours; read-out: Inhibition of IFNa induced STAT phosphorylation HEK293 cells IC50
Recorded IC50 by entry

Example cases with answers are listed next.
{"columns": ["COMPOUND", "RESULT"],
 "data": [
  ["COc1c(Nc2cc(Nc3cc(C)nc(C)n3)ncn2)cccc1-c1nnn(C)n1", "10 to 100 nM"],
  ["Cc1cc(Nc2cc(Nc3ncc(C4CCCCO4)cc3S(C)(=O)=O)ncn2)nc(C)n1 (stereo not drawn)", "< 10 nM"],
  ["COc1c(Nc2cc(Nc3cc(C)nc(C)n3)ncn2)cccc1-c1ncn(CC2COC2)n1", "10 to 100 nM"]
]}

input: Endpoint output: IC50 of `COc1c(Nc2cc(Nc3cc(C)nc(C)n3)ncn2)cccc1-c1ncn(C)n1` . Value?
output: 10 to 100 nM

input: What does the record list as IC50 for `COc1c(Nc2cc(Nc3cc(C)nc(C)n3)ncn2)cccc1-c1ncn(CC2CCOCC2)n1` ?
output: 100 to 1000 nM

input: Fill blank: measured IC50 of the compound `Cc1cc(Nc2cc(Nc3ccc(C(=O)N(C)C)cc3N(C)S(C)(=O)=O)ncn2)nc(C)n1` is ____.
output: 10 to 100 nM

input: Entry COc1c(Nc2cc(Nc3cc(C)nc(C)n3)ncn2)cccc1-c1ncn(CC2CCCCO2)n1 (stereo not drawn) has what IC50?
output: 10 to 100 nM

input: IC50 for `Cc1cc(Nc2cc(Nc3ccc(Cc4ccccc4)cc3N(C)S(C)(=O)=O)ncn2)nc(C)n1` ?
output: < 10 nM

input: State the recorded IC50 for this entry: `Cc1cc(Nc2cc(Nc3ccc(C4=CCOCC4)cc3N(C)S(C)(=O)=O)ncn2)nc(C)n1`
output: < 10 nM

input: Which value of IC50 has been reported for `Cc1cc(Nc2cc(Nc3ncc(-c4cn(C)cn4)cc3N(C)S(C)(=O)=O)ncn2)nc(C)n1` in the records?
output: 10 to 100 nM

input: # lookup: IC50 of `COc1cc(-c2noc(C)n2)ccc1Nc1cc(Nc2cc(C)nc(C)n2)ncn1`
output: > 1000 nM

input: Request the reported IC50 associated with Cc1cc(Nc2cc(Nc3ccc(C4CCNC4)cc3N(C)S(C)(=O)=O)ncn2)nc(C)n1 (stereo not drawn)
output: 100 to 1000 nM

input: Returns the measured IC50 for the input compound. Input: `Cc1cc(Nc2cc(Nc3ncc(-c4cnn(C)c4C)cc3P(C)(C)=O)ncn2)nc(C)n1`
output: < 10 nM

input: Fill in: IC50 of `Cc1cc(Nc2cc(Nc3c(F)cc(-c4cnn(C)c4C)cc3S(C)(=O)=O)ncn2)nc(C)n1` is ___
output: 100 to 1000 nM

input: Any idea what IC50 was measured for `Cc1cc(Nc2cc(Nc3ncc(-c4ncn(C)n4)cc3N(C)S(C)(=O)=O)ncn2)nc(C)n1` ?
output: 10 to 100 nM

input: Query (compound): `COc1c(C)cccc1Nc1cc(Nc2cc(C)nc(C)n2)ncn1` ; field requested: IC50
output: 10 to 100 nM

input: Data request, read-out IC50, for `COc1cc(-c2ncn(C)n2)ccc1Nc1cc(Nc2cc(C)nc(C)n2)ncn1`
output: 10 to 100 nM

input: Bench note: what IC50 did `Cc1cc(Nc2cc(Nc3ccc(-c4cnn(C)c4C)cc3N(C)S(C)(=O)=O)ncn2)nc(C)n1` show?
output: < 10 nM

input: Recorded IC50 for `COc1c(Br)cccc1Nc1cc(Nc2cc(C)nc(C)n2)ncn1` , please?
output: 100 to 1000 nM

input: If you can, please state the reported IC50 value of `Cc1cc(Nc2cc(Nc3ncccc3N(C)S(C)(=O)=O)ncn2)nc(C)n1` .
output: 10 to 100 nM

input: Requested read-out: IC50. Entry: `COc1ccccc1Nc1cc(NC(=O)C2CC2)ncn1`
output: > 1000 nM

input: Entry `Cc1cc(Nc2cc(Nc3ncc(-c4cnn(C)c4)cc3N(C)S(C)(=O)=O)ncn2)nc(C)n1` has what IC50?
output: < 10 nM

input: Using the record for `Cc1cc(Nc2cc(Nc3ncc(-c4nnc(C)n4C)cc3N(C)S(C)(=O)=O)ncn2)nc(C)n1` , report its IC50.
output: > 1000 nM

input: Fill blank: measured IC50 of the compound `COc1c(-c2ncn(C)n2)ccnc1Nc1cc(Nc2cc(C)nc(C)n2)ncn1` is ____.
output: < 10 nM

input: Can you share its IC50? I mean this compound: `COc1c(F)cccc1Nc1cc(Nc2cc(C)nc(C)n2)ncn1`
output: > 1000 nM

###

- Test system: STAT1/3 through TYK2/JAK1
- ASSAY: IFNa induced STAT phosphorylation in HEK293 cells (SIE-bla reporter gene)
- Type: cell-based
- TEST_SETTINGS: Homo sapiens, HEK293; HEK293T-sie-bla cells, IFNa at EC80, 4 hours; read-out: Inhibition of IFNa induced STAT phosphorylation HEK293 cells IC50
MEASURED_ATTRIBUTE: IC50

# annotated cases, reported IC50 shown
{"columns": ["COMPOUND", "ASSAYED_TARGET", "RESULT"],
 "data": [
  ["Cc1cc(Nc2cc(Nc3ccccc3-c3ncn(C)n3)ncn2)nc(C)n1 [Example 79]", "STAT1/3 through TYK2/JAK1", "> 1000 nM"],
  ["Cc1c(-c2cnc(Nc3cc(Nc4ccc(F)cn4)ncn3)c(S(C)(=O)=O)c2)cnn1C [Example 152]", "STAT1/3 through TYK2/JAK1", "< 10 nM"],
  ["Cc1cc(Nc2cc(Nc3ncc(-c4cnn(C)c4C)cc3N(C)S(C)(=O)=O)ncn2)ncc1F [Example 103]", "STAT1/3 through TYK2/JAK1", "< 10 nM"]
]}

input: What value of IC50 has been recorded for this entry: COc1c(C)ccnc1Nc1cc(Nc2cc(C)nc(C)n2)ncn1 [Example 132]
output: 100 to 1000 nM

###

- System: STAT1/3 through TYK2/JAK1
- ASSAY: IFNa induced STAT phosphorylation in HEK293 cells (SIE-bla reporter gene)
- Type: cell-based
- TEST_SETTINGS: Homo sapiens, HEK293; HEK293T-sie-bla cells, IFNa at EC80, 4 hours; read-out: Inhibition of IFNa induced STAT phosphorylation HEK293 cells IC50
IC50 values by entry

{"columns": ["COMPOUND", "IC50"],
 "data": [
  ["Cc1cc(Nc2cc(Nc3ccccc3N(C)S(C)(=O)=O)ncn2)nc(C)n1 [Example 12]", "> 1000 nM"],
  ["Cc1cc(Nc2cc(Nc3nc(C)ccc3S(C)(=O)=O)ncn2)ncn1 [Example 156]", "> 1000 nM"],
  ["Cc1cc(Nc2cc(Nc3ccc(-c4cncn4C)cc3N(C)S(C)(=O)=O)ncn2)nc(C)n1 [Example 24]", "10 to 100 nM"]
]}

input: Item under review: COc1cc(C#N)cnc1Nc1cc(Nc2cc(C)nc(C)n2)ncn1 [Example 27] . Reported IC50?
output: > 1000 nM

input: Entry CN(c1ccccc1Nc1cc(Nc2ccc(C#N)cn2)ncn1)S(C)(=O)=O [Example 102] has what IC50?
output: 10 to 100 nM

###

- ASSAYED_TARGET: TYK2 (JH2domain-pseudokinase) (Homo sapiens)
- Construct: TYK2 (JH2domain-pseudokinase)-tagged T7 phage strains were prepared in an E. coli host derived from the BL21 strain
- Sequence (P29597 589-875 limits assumed): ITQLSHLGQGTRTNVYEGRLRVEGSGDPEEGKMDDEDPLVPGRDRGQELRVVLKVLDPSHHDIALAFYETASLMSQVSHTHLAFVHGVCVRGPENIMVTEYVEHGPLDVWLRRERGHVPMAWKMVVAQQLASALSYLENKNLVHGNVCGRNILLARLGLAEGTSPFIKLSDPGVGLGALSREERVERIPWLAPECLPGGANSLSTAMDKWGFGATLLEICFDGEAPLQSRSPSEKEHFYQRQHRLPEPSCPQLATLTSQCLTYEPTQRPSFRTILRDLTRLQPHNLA
- ASSAY: TYK2 JH2 domain binding assay (KINOMEscan)
- Experimental: TYK2 (JH2domain-pseudokinase) KINOMEscan assay. […] Kds were determined using an 11-point 3-fold compound dilution series with three DMSO control points. […] The kinase concentration in the eluates was measured by qPCR. […] An 11-point 3-fold serial dilution of each test compound was prepared in 100% DMSO at 100x final test concentration and subsequently diluted to 1x in the assay (final DMSO concentration = 1%). Most Kds were determined using a compound top concentration = 30,000 nM. […]
Consider the following compounds and their measured Kd readings.

input: Reported Kd for `Cc1c(-c2cnc(Nc3cc(NC(=O)C4CC4)ncn3)c(S(C)(=O)=O)c2)cnn1C` : what is it?
output: < 0.2 nM

input: Item under review: `Cc1cc(Nc2cc(Nc3ccc(-c4cn[nH]c4C)cc3N(C)S(C)(=O)=O)ncn2)nc(C)n1` . Reported Kd?
output: < 0.2 nM

input: Field request: Kd | item: COc1c(Nc2cc(Nc3cc(C)nc(C)n3)ncn2)cccc1-c1ncn(C2CC2(F)F)n1 (centres unmarked)
output: 0.2 to 1 nM

input: Recorded Kd of `Cc1cc(Nc2cc(Nc3ncc(-c4nnc(C)n4C)cc3N(C)S(C)(=O)=O)ncn2)nc(C)n1` , please.
output: 0.2 to 1 nM

input: I have this compound here, `COc1c(Nc2cc(Nc3cc(C)nc(C)n3)ncn2)cccc1-c1ncn(C2COC2)n1` , and I need its recorded Kd.
output: 0.2 to 1 nM
